# credit: ChEMBL document CHEMBL2086248

# Test system: Mus musculus
# assay.procedure: Anticonvulsant activity in mouse assessed as protection against maximal electroshock-induced seizures at 100 mg/kg, ip after 4 hrs
# Type: functional, organism-based
# Set-up: dose 100 mg/kg
Calls of active or inactive are those of the source. The calls are words filed in the database; no cut-off is given here.
// classify into active, inactive

Some entries whose results are on file:
O=C(CCC(=O)c1ccccc1)O/N=C(\Cn1ccnc1)c1ccc2ccccc2c1; active
O=C1NC(=O)C(c2ccccc2)(c2ccccc2)N1; active
Cc1ccccc1C(=O)O/N=C(\Cn1ccnc1)c1ccc2ccccc2c1; inactive

Called result for NC(=O)N1c2ccccc2C=Cc2ccccc21 [CARBAMAZEPINE]
active

And for Cl.O=C(O/N=C(\Cn1ccnc1)c1ccc2ccccc2c1)c1ccc(-c2ccccc2)cc1 ?
inactive

And for CCCCC(=O)O/N=C(\Cn1ccnc1)c1ccc2ccccc2c1.Cl ?
inactive

And for O=C(O/N=C(\Cn1ccnc1)c1ccc2ccccc2c1)c1cccc([N+](=O)[O-])c1 ?
inactive

And for COc1ccccc1C(=O)O/N=C(\Cn1ccnc1)c1ccc2ccccc2c1 ?
active

And for O=C(O/N=C(\Cn1ccnc1)c1ccc2ccccc2c1)c1ccc(Cl)cc1 ?
inactive

And for CC(C)CC(=O)O/N=C(\Cn1ccnc1)c1ccc2ccccc2c1.Cl ?
active

And for CCCC(CCC)C(=O)[O-].[Na+] [VALPROATE SODIUM] ?
inactive

And for O=C(O/N=C(\Cn1ccnc1)c1ccc2ccccc2c1)c1ccccc1Cl ?
inactive

And for COc1cccc(C(=O)O/N=C(\Cn2ccnc2)c2ccc3ccccc3c2)c1 ?
inactive

And for COc1ccc(C(=O)O/N=C(\Cn2ccnc2)c2ccc3ccccc3c2)cc1 ?
inactive

And for CCCCCC(=O)O/N=C(\Cn1ccnc1)c1ccc2ccccc2c1.Cl ?
inactive

And for O=C(O/N=C(\Cn1ccnc1)c1ccc2ccccc2c1)c1ccccc1 ?
active

And for O=C(O/N=C(\Cn1ccnc1)c1ccc2ccccc2c1)c1cccc(Cl)c1 ?
active
